System: Staphylococcus aureus S13E
assay_name: MIC, standard agar-dilution assay (Table V)
Format: cell-based
condition: Staphylococcus aureus, S13E
Where a name gives a salt, the structure may show the parent alone.
measured_quantity: MIC (µg/mL)
State the answer as a number, implicitly in µg/mL.

Ask: For the compound CCC1OC(=O)CC(O)C(C)C(OC2OC(C)C(O)C(N(C)C)C2O)C(CC=O)CC(C)C(=O)C=CC(C)=CC1CN (centres unmarked) , what MIC is on record?
Reply: 8

Ask: Same for CCC1OC(=O)CC(O)C(C)C(OC2OC(C)C(O)C(N(C)C)C2O)C(CC=O)CC(C)C(=O)C=CC(C)=CC1CSc1nnnn1C (centres unmarked)
Reply: 0.5

Ask: Same for CCC1OC(=O)CC(O)C(C)C(OC2OC(C)C(O)C(N(C)C)C2O)C(CC=O)CC(C)C(=O)C=CC(C)=CC1CN=[N+]=[N-] (centres unmarked)
Reply: 0.25

Ask: Same for C=C1C=CC(=O)C(C)CC(CC=O)C(OC2OC(C)C(O)C(N(C)C)C2O)C(C)C(O)CC(=O)OC(CC)C2CC12 (centres unmarked)
Reply: 4

Ask: Same for CCC1OC(=O)CC(O)C(C)C(OC2OC(C)C(O)C(N(C)C)C2O)C(CC=O)CC(C)C(=O)C=CC(C)(OCCc2ccccc2)C2CC12 (centres unmarked)
Reply: 1

Ask: Same for CCC1OC(=O)CC(O)C(C)C(OC2OC(C)C(O)C(N(C)C)C2O)C(CC=O)CC(C)C(=O)C=CC(C)=CC1CSc1nnc(C)o1 (centres unmarked)
Reply: 0.25

Ask: Same for CCC1OC(=O)CC(O)C(C)C(OC2OC(C)C(O)C(N(C)C)C2O)C(CC=O)CC(C)C(=O)C=CC(C)=CC1CNC(=O)[C@H](N)c1ccccc1 (single isomer, unassigned) [Compound 12, bis(trifluoroacetate) salt]
Reply: 8

Ask: Same for CCC1OC(=O)CC(O)C(C)C(OC2OC(C)C(O)C(N(C)C)C2O)C(CC=O)CC(C)C(=O)C=CC(C)=CC1CF (centres unmarked)
Reply: 0.5

Ask: Same for CCC1OC(=O)CC(O)C(C)C(OC2OC(C)C(O)C(N(C)C)C2O)C(CC=O)CC(C)C(=O)C=CC(C)=CC1CSc1nnc(C)s1 (centres unmarked)
Reply: 0.25

Ask: Same for CCC1OC(=O)CC(O)C(C)C(OC2OC(C)C(O)C(N(C)C)C2OC(C)=O)C(CC=O)CC(C)C(=O)C=CC(C)=CC1C[n+]1ccccc1 (centres unmarked)
Reply: 32

Ask: Same for CCC1OC(=O)CC(O)C(C)C(OC2OC(C)C(O)C(N(C)C)C2O)C(CC=O)CC(C)C(=O)C=CC(C)=CC1CNC(=O)[C@H](NC(=O)OC(C)(C)C)c1ccccc1 (single isomer, unassigned)
Reply: 2

* * *

For each record, write down the corresponding MIC.
Tested on: Haemophilus influenzae Holt
assay_name: MIC, standard agar-dilution assay (Table V)
Format: cell-based
condition: Haemophilus influenzae
State the answer as a number, implicitly in mg/L.

Ask: For the compound CCC1OC(=O)CC(O)C(C)C(OC2OC(C)C(O)C(N(C)C)C2O)C(CC=O)CC(C)C(=O)C=CC(C)=CC1CSc1nnc(C)s1 (stereo not shown) [Compound 3] , what MIC is on record?
Reply: 2

Ask: Same for CCC1OC(=O)CC(O)C(C)C(OC2OC(C)C(O)C(N(C)C)C2O)C(CC=O)CC(C)C(=O)C=CC(C)=CC1CSc1nnnn1C (stereo not shown) [Compound 5]
Reply: 4

Ask: Same for CCC1OC(=O)CC(O)C(C)C(OC2OC(C)C(O)C(N(C)C)C2O)C(CC=O)CC(C)C(=O)C=CC(C)=CC1CSc1nnc(C)o1 (stereo not shown) [Compound 4]
Reply: 4

Ask: Same for CCC1OC(=O)CC(O)C(C)C(OC2OC(C)C(O)C(N(C)C)C2O)C(CC=O)CC(C)C(=O)C=CC(C)=CC1CNC(=O)[C@H](NC(=O)OC(C)(C)C)c1ccccc1 (single isomer, unassigned) [Compound 11]
Reply: 8
